target.system: organic anion transporting polypeptide 1B1 (OATP1B1) (Homo sapiens (Human))
Sequence (Q9Y6L6 whole entry): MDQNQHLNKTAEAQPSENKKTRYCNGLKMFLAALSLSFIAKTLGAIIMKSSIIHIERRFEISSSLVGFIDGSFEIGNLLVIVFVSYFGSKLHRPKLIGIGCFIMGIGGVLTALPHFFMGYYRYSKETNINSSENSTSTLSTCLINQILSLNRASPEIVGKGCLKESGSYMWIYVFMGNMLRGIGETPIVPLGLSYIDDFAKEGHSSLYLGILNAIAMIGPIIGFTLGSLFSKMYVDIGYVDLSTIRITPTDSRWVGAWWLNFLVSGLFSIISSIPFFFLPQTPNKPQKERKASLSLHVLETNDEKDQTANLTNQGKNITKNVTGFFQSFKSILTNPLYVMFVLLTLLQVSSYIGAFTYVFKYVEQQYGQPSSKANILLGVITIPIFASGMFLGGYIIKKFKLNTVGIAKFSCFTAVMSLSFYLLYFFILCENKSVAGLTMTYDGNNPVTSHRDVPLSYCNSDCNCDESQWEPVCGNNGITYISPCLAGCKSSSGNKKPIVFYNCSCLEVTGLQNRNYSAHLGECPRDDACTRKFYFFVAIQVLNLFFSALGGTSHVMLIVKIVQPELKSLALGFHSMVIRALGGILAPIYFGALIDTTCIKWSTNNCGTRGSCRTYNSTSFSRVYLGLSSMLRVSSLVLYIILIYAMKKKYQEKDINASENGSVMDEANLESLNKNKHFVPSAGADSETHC
experiment.notes: OATP assay in CHO-OATP1B1 cells;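 also: inhibition of probe substrate uptake into the cells, ten minutes exposure, accumulated substrate read by fluorescence once cells were lysed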
Starred links: 1 amine or outer side, 2 acyl side, 3 side chain; linkers in the order of their positions; H or OH if unused. Non-standard residues stand in square brackets, D forms with d. Residues, ends and D or L forms follow the SMILES beside them. X48 = C[C@@H](CN1CCN(S(C)(=O)=O)CC1)[C@@H](C(=O)[*:2])N(C)[*:1]; X37 = C[C@H](CN1CCC(S(C)(=O)=O)CC1)[C@@H](C(=O)[*:2])N(C)[*:1]; X62 = COCCN1CCN(CCC[C@@H](C)[C@@H](C(=O)[*:2])N(C)[*:1])CC1; X22 = C[C@H](CN1CCN(C2CCC2)CC1)[C@@H](C(=O)[*:2])N(C)[*:1]; MeBmt = C/C=C/C[C@@H](C)[C@@H](O)[C@H](NC)C(=O)O; NMeL = CN[C@@H](CC(C)C)C(=O)O; NMeV = CN[C@H](C(=O)O)C(C)C; dNMeA = CN[C@H](C)C(=O)O; Abu = CC[C@H](N)C(=O)O
measurement.type: log10 of IC50 (log10 of the value in nM)
Give log10 of IC50, with IC50 taken in nM.

Worked examples follow.
molecule: C/C=C/C[C@@H](C)[C@@H](O)[C@H]1C(=O)N[C@@H](CC)C(=O)N(C)[C@H](C)C(=O)N(C)[C@@H]([C@@H](C)CN2CCN(S(C)(=O)=O)CC2)C(=O)N[C@@H](C(C)C)C(=O)N(C)[C@@H](CC(C)C)C(=O)N[C@@H](C)C(=O)N[C@H](C)C(=O)N(C)[C@@H](CC(C)C)C(=O)N(C)[C@@H](CC(C)C)C(=O)N(C)[C@@H](C(C)C)C(=O)N1C [Compound 2.17.9] (cyclo(A[dA][NMeL][NMeL][NMeV][MeBmt][Abu][dNMeA][X48]V[NMeL]))
log10 of IC50: 2.60

molecule: C/C=C/C[C@@H](C)[C@@H](O)[C@H]1C(=O)N[C@@H](CC)C(=O)N(C)[C@H](C)C(=O)N(C)[C@@H]([C@H](C)CCCN2CCN(CCOC)CC2)C(=O)N[C@@H](C(C)C)C(=O)N(C)[C@@H](CC(C)C)C(=O)N[C@@H](C)C(=O)N[C@H](C)C(=O)N(C)[C@@H](CC(C)C)C(=O)N(C)[C@@H](CC(C)C)C(=O)N(C)[C@@H](C(C)C)C(=O)N1C [Compound 2.19.6] (cyclo(A[dA][NMeL][NMeL][NMeV][MeBmt][Abu][dNMeA][X62]V[NMeL]))
log10 of IC50: 3.34

molecule: C/C=C/C[C@@H](C)[C@@H](O)[C@H]1C(=O)N[C@@H](CC)C(=O)N(C)[C@H](C)C(=O)N(C)[C@@H]([C@H](C)CN2CCN(C3CCC3)CC2)C(=O)N[C@@H](C(C)C)C(=O)N(C)[C@@H](CC(C)C)C(=O)N[C@@H](C)C(=O)N[C@H](C)C(=O)N(C)[C@@H](CC(C)C)C(=O)N(C)[C@@H](CC(C)C)C(=O)N(C)[C@@H](C(C)C)C(=O)N1C [Compound 2.5.14] (cyclo(A[dA][NMeL][NMeL][NMeV][MeBmt][Abu][dNMeA][X22]V[NMeL]))
log10 of IC50: 3.72

molecule: C/C=C/C[C@@H](C)[C@@H](O)[C@H]1C(=O)N[C@@H](CC)C(=O)N(C)[C@H](C)C(=O)N(C)[C@@H]([C@H](C)CN2CCC(S(C)(=O)=O)CC2)C(=O)N[C@@H](C(C)C)C(=O)N(C)[C@@H](CC(C)C)C(=O)N[C@@H](C)C(=O)N[C@H](C)C(=O)N(C)[C@@H](CC(C)C)C(=O)N(C)[C@@H](CC(C)C)C(=O)N(C)[C@@H](C(C)C)C(=O)N1C [Compound 2.5.20] (cyclo(A[dA][NMeL][NMeL][NMeV][MeBmt][Abu][dNMeA][X37]V[NMeL]))
log10 of IC50: 3.26

Notebook: C/C=C/C[C@@H](C)[C@@H](O)[C@H]1C(=O)N[C@@H](CC)C(=O)N(C)[C@H](C)C(=O)N(C)[C@@H]([C@H](C)COC)C(=O)N[C@@H](C(C)C)C(=O)N(C)[C@@H](CC(C)C)C(=O)N[C@@H](C)C(=O)N[C@H](C)C(=O)N(C)[C@@H](CC(C)C)C(=O)N(C)[C@@H](CC(C)C)C(=O)N(C)[C@@H](C(C)C)C(=O)N1C , log10 of IC50 read as 3.71
